Where do these numbers come from? They come from PubChem BioAssay (NCI).

Test system: SF-539 CNS
Experiment: NCI tumour cell line growth inhibition, 48 h; in the data active means GI50 below about 0.43 µM; inactive means the rest
Outcome codes: active, inactive

>>> discretelabel("CN(C)CCCNc1nn2c(=O)c3ccccc3nc2c2ccccc12")
"inactive"
>>> discretelabel("Cn1nc(C(F)(F)F)c(-c2ccc(Cl)c(C(F)(F)F)c2)c1-c1ccc(OCc2ccc(Cl)cc2)cc1O")
"inactive"
>>> discretelabel("Nc1ccc(-c2nc3ccc4[nH]ncc4c3c3c2CCCC3)cc1F")
"inactive"
>>> discretelabel("COc1ccc(C(=O)c2cc(OC)c(OC)c(OC)c2)cc1OC(C)=O")
"active"

###

Recorded TGI, one value per entry.
Test system: UACC-62 melanoma
Assay: NCI tumour cell line growth inhibition, 48 h
property: TGI

>>> obsvalue("COC(=O)C(=O)C1(CCC(C)=O)c2ccccc2-c2ccccc21")
"> 100 µM"
>>> obsvalue("N#CCCC1C(C#N)C2CC1C1C3C=CC(C3)C21 (stereo unspecified)")
"> 100 µM"
>>> obsvalue("COC(=O)c1sc(=S)sc1SCc1ccccc1CSc1sc(=S)sc1C(=O)OC")
"> 100 µM"
>>> obsvalue("N/C(=N\\NS(=O)(=O)c1ccccc1)Oc1ccc(Cl)cc1")
"> 100 µM"
>>> obsvalue("CCOC(=O)c1nc2c3c(ncn2n1)Oc1c(c(-c2ccccc2)nn1-c1ccccc1)C3c1ccc(Cl)cc1 (stereo unspecified)")
"> 100 µM"
>>> obsvalue("CN(C(=O)C1(C(=O)C=[N+]=[N-])CC1)c1ccccc1")
"> 100 µM"
>>> obsvalue("CC(=O)N(CN1C(=O)CCC1C(=O)O)c1ccccc1 (stereo unspecified)")
"> 100 µM"
>>> obsvalue("CCOC(=O)c1cc2c(OC(C)=O)ccc(OC(C)=O)c2s1")
"4.08 µM"
>>> obsvalue("N#Cc1c(NC(=O)c2ccccc2)sc2c1CCC(=O)C2")
"1.93 µM"
>>> obsvalue("Nc1nc2c(ncn2C2OC(CO)C(O)C2N)c(=O)[nH]1 (stereo unspecified)")
"> 100 µM"
>>> obsvalue("CC1(C)CCC[C@]23C(=O)O[C@](O)(C(=O)C4=C[C@@](C)(/C=C/CCCc5ccc6ccc7cccc8ccc5c6c78)CC[C@@]42O)[C@@H]13")
"0.343 µM"
>>> obsvalue("N#Cc1c(Nc2ccc(F)cc2)[n+]([O-])c2ccc(Cl)cc2[n+]1[O-]")
"17.2 µM"
>>> obsvalue("O=C(/C=C/c1ccc(C(F)(F)F)cc1)c1ccc(Nc2nc(NCCO)nc(NCCO)n2)cc1")
"6.03 µM"
>>> obsvalue("Nc1ccc(-c2nc3ccc4[nH]ncc4c3c3c2CCCC3)cc1F")
"6.71 µM"
>>> obsvalue("O=C(Nn1c(-c2ccccc2)nc2ccccc2c1=O)c1ccccn1")
"> 100 µM"
>>> obsvalue("Cc1ccc(S(=O)(=O)N(/N=C(\\N)Oc2ccc(Cl)cc2)C(=N)Oc2ccc(Cl)cc2)cc1")
"> 100 µM"

###

System: OVCAR-8 ovarian
Assay: NCI tumour cell line growth inhibition, 48 h; in the data active = GI50 below about 0.43 µM; inactive = the rest
Outcome codes: active, inactive

>>> discretelabel("Nc1ncnc2c1c(C(F)(F)F)cn2[C@@H]1O[C@H](CO)[C@@H](O)[C@H]1O")
"inactive"
>>> discretelabel("Cl.[Pt].[c-]1ccccc1-c1ccccn1.c1ccc(P(c2ccccc2)C([PH+](c2ccccc2)c2ccccc2)[PH+](c2ccccc2)c2ccccc2)cc1")
"inactive"
>>> discretelabel("S=c1nc(-c2ccccc2)oc(=NC2CCCCC2)n1C1CCCCC1")
"inactive"
>>> discretelabel("O=C(c1ccccc1Nc1ccnc(C(F)(F)F)c1)N1CCN(c2cccc(Cl)c2)CC1")
"inactive"
>>> discretelabel("C#CCN1C(=O)/C(=c2\\sc3n(c2=O)C2C(NN=3)N(CC)C(=O)N2CC)c2ccccc21 (stereo not drawn)")
"inactive"
>>> discretelabel("CC(C)C[C@H](NC(=O)[C@H](CCc1ccccc1)NC(=O)CN1CCOCC1)C(=O)N[C@@H](Cc1ccccc1)C(=O)N[C@@H](CC(C)C)C(=O)[C@@]1(C)CO1")
"active"
>>> discretelabel("COC(=O)C[CH](C(=O)OC)[Ge]([CH3])([CH3])[S]c1ccccc1 (stereo not drawn)")
"inactive"
>>> discretelabel("COc1cc(-c2cc(-c3ccc(N(C)C)cc3)nc(N3CCOCC3)c2C#N)cc(OC)c1OC")
"inactive"

###

Test system: A498 renal
Assay: NCI tumour cell line growth inhibition, 48 h
Recorded TGI, one value per entry.
property: TGI

>>> obsvalue("NCCCCCS(=O)(=O)O")
"> 100 µM"
>>> obsvalue("COC(=O)C1=C(OC)c2cc3c(cc2C(c2cc(OC)c(OC)c(OC)c2)C1C(=O)OC)OCO3 (configuration not stated)")
"> 100 µM"
>>> obsvalue("Cc1cnc[nH]c1=O")
"> 100 µM"
>>> obsvalue("Cc1ccc(S(=O)(=O)N(/N=C(\\N)Oc2ccc(Cl)cc2)C(=N)Oc2ccc(Cl)cc2)cc1")
"> 100 µM"
>>> obsvalue("CN=C(Nn1cnnc1)OC")
"> 100 µM"
>>> obsvalue("O=P(Oc1ccc(Cl)cc1)(Oc1ccc(Cl)cc1)N1CC1")
"> 10 µM"
>>> obsvalue("CC(=O)N(CN1C(=O)CCC1C(=O)O)c1ccccc1 (configuration not stated)")
"> 100 µM"
>>> obsvalue("C=C1CCC2C3(C)COC(c4ccc(NC(C)=O)cc4)OC3CCC2(C)C1C/C=C1/C(=O)OCC1O (configuration not stated)")
"> 100 µM"
>>> obsvalue("CN1CCn2c(Br)ccc2C1=O")
"> 100 µM"
>>> obsvalue("NC(Cc1cc(I)c(O)c(I)c1)C(=O)O (configuration not stated)")
"> 500 µM"
>>> obsvalue("CC(CN=C(CC(=O)c1ccc(Br)cc1)c1ccccc1)N=C(CC(=O)c1ccc(Br)cc1)c1ccccc1 (configuration not stated)")
"> 100 µM"
>>> obsvalue("Cc1cc2ccccc2c[n+]1CC(O)C[n+]1cc2ccccc2cc1C")
"> 100 µM"

###

System: NCI-H23 lung
Test: NCI tumour cell line growth inhibition, 48 h
property: TGI

>>> obsvalue("COC(=O)c1c[nH]c(=O)[nH]c1=O")
"> 100 µM"
>>> obsvalue("COc1cc(C2C3=C(CCC3=O)Oc3cc4c(cc32)OCO4)cc(OC)c1OC (stereo not given)")
"> 100 µM"
>>> obsvalue("COC(=O)C1=C(O)C(C(=O)OC)[C@@]2(O)[C@@H](C(=O)OC)C(c3ccc(OC(=O)/C(=C/c4ccc(Cl)cc4)c4ccc(Cl)cc4)cc3)C[C@@H]1[C@@H]2C(=O)OC (stereo not given in full)")
"> 100 µM"
>>> obsvalue("OCC(O)C(O)c1nn(-c2ccccc2)c2nc3cc(Cl)c(Cl)cc3nc12 (stereo not given)")
"> 100 µM"
>>> obsvalue("Cc1c[nH]c2c1C13CC1CN(C(=O)c1cc4cc(NC(=O)c5cc6ccccc6o5)ccc4[nH]1)C3=CC2=O (stereo not given)")
"< 0.001 µM"

###

Tested on: ACHN renal
Assay: NCI tumour cell line growth inhibition, 48 h
Recorded TGI, one value per entry.
property: TGI

>>> obsvalue("CC(=O)NC1C(CO)O[C@@H]2OC(C)(C)O[C@H]12 (some centres not stated)")
"> 100 µM"
>>> obsvalue("COc1ccc(N2CCN(C(=O)c3ccccc3Nc3ccnc(C(F)(F)F)c3)CC2)cc1")
"> 100 µM"
>>> obsvalue("CCOc1ccc2[nH]c3c(C)c4cc[n+](C)cc4c(C)c3c2c1")
"> 100 µM"
>>> obsvalue("COc1ccc(-c2nn(-c3cccc(Cl)c3)cc2C=C(C#N)C#N)cc1")
"8.82 µM"
>>> obsvalue("Cc1ccc(S(=O)(=O)N(/N=C(\\N)Oc2ccc(Cl)cc2)C(=N)Oc2ccc(Cl)cc2)cc1")
"> 100 µM"
>>> obsvalue("O=C(/C=C/c1ccc(C(F)(F)F)cc1)c1ccc(Nc2nc(NCCO)nc(NCCO)n2)cc1")
"15.6 µM"
>>> obsvalue("Oc1ccc2oc3ncc(Cl)c(-c4ccccc4)c3c2c1")
"> 100 µM"
>>> obsvalue("Nc1ccc(-c2nc3ccc4[nH]ncc4c3c3c2CCCC3)cc1F")
"15.5 µM"
>>> obsvalue("COC(=O)[C@H](C)N1C(=O)N[C@@H](C(C)C)C1=O")
"> 100 µM"
>>> obsvalue("CCN(CC)CCO/N=C1\\CC[C@H]2[C@@H]3CC=C4C[C@@H](O)CC[C@]4(C)[C@H]3CC[C@]12C")
"> 100 µM"
>>> obsvalue("COC(=O)C1=C(O)C(C(=O)OC)[C@@]2(O)[C@@H](C(=O)OC)C(c3ccc(OC(=O)/C(=C/c4ccc(Cl)cc4)c4ccc(Cl)cc4)cc3)C[C@@H]1[C@@H]2C(=O)OC (some centres not stated)")
"> 100 µM"
>>> obsvalue("COc1cc(-c2cc(-c3ccc(N(C)C)cc3)nc(N3CCOCC3)c2C#N)cc(OC)c1OC")
"> 100 µM"
